Measured hGIPR Potency, no HSA, EC50 [pM] of individual entries
Biological target: T1, human GIP receptor (human, UniProt P48546 22-466)
T1 sequence (looked up): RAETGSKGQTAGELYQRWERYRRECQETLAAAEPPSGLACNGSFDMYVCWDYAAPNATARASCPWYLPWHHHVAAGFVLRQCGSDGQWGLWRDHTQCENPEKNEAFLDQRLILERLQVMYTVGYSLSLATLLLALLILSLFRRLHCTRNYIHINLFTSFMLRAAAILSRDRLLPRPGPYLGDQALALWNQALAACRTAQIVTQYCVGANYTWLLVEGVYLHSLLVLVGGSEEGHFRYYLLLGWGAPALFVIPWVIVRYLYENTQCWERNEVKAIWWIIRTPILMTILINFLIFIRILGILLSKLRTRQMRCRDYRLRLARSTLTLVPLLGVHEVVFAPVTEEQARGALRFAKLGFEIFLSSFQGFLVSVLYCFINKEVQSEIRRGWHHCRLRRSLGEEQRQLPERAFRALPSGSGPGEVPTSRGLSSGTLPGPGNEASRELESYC
Assay: cell-based or functional assay
Numbered stars: 1 amine (or outer) side, 2 acyl side, 3 side chain; on linkers, the order of the positions; unused ones are H or OH. Square brackets hold non-standard residues; d marks the D form. Side chains are listed from the residue outwards. * marks the point of attachment. C20 diacid = O=C(O)CCCCCCCCCCCCCCCCCCC(=O)*; C18 diacid = O=C(O)CCCCCCCCCCCCCCCCC(=O)*; γGlu = O=C(O)[C@H](CCC(=O)[*:2])N[*:1]; Chem. 28 = not defined here; AEEA = NCCOCCOCC(=O)O; Aib = CC(C)(N)C(=O)O
READOUT_LABEL: hGIPR Potency, no HSA, EC50 [pM] (pM)

- Compound 38 (reading uncertain) peptide: Y[Aib]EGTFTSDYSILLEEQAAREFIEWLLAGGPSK(Chem. 28)GGQAPGQAPGEASHLSTAQTQRLSAELHELATLPRTETGSGSP-NH2: 1.37
- Compound 74 (peptide) peptide: Y[Aib]EGTFTSDYSILLEEQAAREFIEWLLAGGPSGGEASHLSTAQTQRLSAELHK([AEEA-AEEA-γGlu-C18 diacid])LATLPRTETGSGSP-NH2: 2.51
- Compound 19 (reading uncertain) peptide: Y[Aib]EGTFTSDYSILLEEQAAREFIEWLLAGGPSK(Chem. 28)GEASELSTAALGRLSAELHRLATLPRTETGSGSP-NH2: 9.44
- Compound 60 (peptide) peptide: Y[Aib]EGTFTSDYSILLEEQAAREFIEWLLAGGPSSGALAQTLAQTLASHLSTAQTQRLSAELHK([AEEA-AEEA-γGlu-C20 diacid])LATLPRTETGSGSP-NH2: 6.06
- Compound 83 (peptide) peptide: H[Aib]HGTFTSDYSILLEEQAAREFIEWLLAGGPSSGEASHLSTAQTQRLSAELHRLK([AEEA-AEEA-γGlu-C18 diacid])TLPRTETGSGSP-NH2: 2.92
- Compound 64 (peptide) peptide: H[Aib]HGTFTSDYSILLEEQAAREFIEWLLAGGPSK([AEEA-AEEA-γGlu-C18 diacid])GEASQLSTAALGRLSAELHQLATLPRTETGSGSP-NH2: 2.03
- Compound 14 (peptide) peptide: H[Aib]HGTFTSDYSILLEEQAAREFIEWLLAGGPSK([AEEA-AEEA-γGlu-C18 diacid])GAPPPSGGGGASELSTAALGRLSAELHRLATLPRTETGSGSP-NH2: 5.84
- Compound 32 (reading uncertain) peptide: Y[Aib]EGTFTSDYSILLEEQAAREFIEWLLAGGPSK(Chem. 28)GAEASELSTAALGRLSAELHELATLPRTETGSGSP-NH2: 8.09
- Compound 91 (peptide) peptide: H[Aib]HGTFTSDYSILLEEQAAREFIEWLLAGGPSSGAGQAPGQAPGASHLSTAQTQRLSAELHRLK([AEEA-AEEA-γGlu-C18 diacid])TLPRTETGSGSP-NH2: 3.21
